- Test system: LOC_OS01G48390-cb002
- experiment-notes: thermal shift delta Tm vs DMSO control; higher = stronger stabilization (binding);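 note: purified Escherichia coli-expressed rice kinase domain construct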
- condition-parameters: 12.5 µM; protein concentration 2 µM
measured-attribute: thermal shift delta Tm (°C)
Give bare numbers, in °C.

Cc1cccc(CC(=O)N2CCc3c2ccc(-c2cn(C)c4ncnc(N)c24)c3F)n1
-0.13
C[C@@H]1COC(Nc2ccc3ncnc(Nc4ccc(OCc5nccs5)c(Cl)c4)c3c2)=N1
1.02
O=C(Nc1ccccc1C(=O)NC1CCCCNC1=O)c1cc2ccccc2s1 (stereo unspecified)
-0.09
COC(=O)c1ccc2c(c1)NC(=O)/C2=C(\Nc1ccc(N(C)C(=O)CN2CCN(C)CC2)cc1)c1ccccc1
1.19

Lab note: each compound below needs its thermal shift delta Tm filled in.
1. CNC(=O)c1cc(COc2nnc(Nc3ccc(Cl)cc3)c3ccoc23)ccn1
2. CNC(=O)c1ccccc1Nc1nc(Nc2ccc(N3CCOCC3)cc2OC)ncc1Cl

stdout:
[0.26, 0.8]

---

- System: LOC_OS01G21960-cb002
- experiment-notes: thermal shift delta Tm vs DMSO control; higher = stronger stabilization (binding)
- condition-parameters: 12.5 µM; protein concentration 2 µM
Threshold rule: thermal shift delta Tm greater than or equal to 0.9 °C is t; below that, f.

Solved cases (8 shown):
c1nc2c(NC3CCCCC3)nc(Nc3ccc(N4CCOCC4)cc3)nc2[nH]1
t
Cc1cc(N2CCOCC2)cc2[nH]c(-c3c(NC[C@@H](O)c4cccc(Cl)c4)cc[nH]c3=O)nc12
t
O=C1Nc2ccccc2/C1=C1/Nc2ccccc2C1=O
f
CO[C@@H](C(=O)N1Cc2[nH]nc(NC(=O)c3ccc(N4CCN(C)CC4)cc3)c2C1)c1ccccc1
f
COc1cc2ncnc(Nc3ccc(F)c(Cl)c3)c2cc1OCCCN1CCOCC1 [Gefitinib (ZD1839)]
f
COc1cc(N2CCC(N)CC2)ccc1Nc1ncc(Cl)c(-c2c[nH]c3ccccc23)n1
t
CC(C)(C#N)c1ccc(N2C(=O)OCc3cnc4ccc(-c5cnc6ccccc6c5)cc4c32)cc1
f
CC(C)(C)c1nc(-c2ccc(NC(=O)Nc3cccc(C(F)(F)F)c3)c3ccccc23)c2c(N)nccn12
t

stdin: State whether the measured thermal shift delta Tm reaches 0.9 °C, counting equality as reaching it, for CC(C)(C)c1cc(NC(=O)Nc2ccc(-c3cn4c(n3)sc3cc(OCCN5CCOCC5)ccc34)cc2)no1
stdout: t

stdin: Quick check, thermal shift delta Tm >= 0.9 °C? O=C1NC(=O)C(=Cc2ccc(-c3ccc(F)cc3)o2)S1 (stereo in doubt)
stdout: t

stdin: Reported thermal shift delta Tm reaches at least 0.9 °C for CNc1nc(Nc2cnn([C@H]3CCN(C4COC4)C[C@@H]3F)c2Cl)ncc1C(F)(F)F ?
stdout: t

stdin: // inclusive: thermal shift delta Tm at least 0.9 °C? input: Cc1cn(-c2cc(NC(=O)c3ccc(C)c(Nc4nccc(-c5cccnc5)n4)c3)cc(C(F)(F)F)c2)cn1
stdout: f

---

- Test system: LOC_OS02G54510-cb004
- experiment-notes: thermal shift delta Tm vs DMSO control; higher = stronger stabilization (binding)
- condition-parameters: 12.5 µM; protein concentration 2 µM
measured-attribute: thermal shift delta Tm (°C)
One number for each entry, in °C.

Worked set:
CCn1nc(C2CCN(C(=O)CCO)CC2)nc1-c1cnc(N)c(-c2nnc(C(C)(C)C)o2)n1
0.25
Cc1c(C(=O)Nc2ccc(Oc3ccnc4[nH]cc(-c5ccccc5)c34)c(F)c2)c(=O)n(-c2ccc(F)cc2)n1C
-0.32
Oc1c(F)cc(-c2cnccc2-c2ccc(N3CCOCC3)cc2)cc1F
0.07
CN1CCN(c2ccc(OC(F)(F)F)c(Nc3ncc4c(n3)-c3c(c(C(N)=O)nn3CCO)CC4)c2)CC1
-0.01

For the 8 compounds below, give their thermal shift delta Tm values.
1. CNCc1ccc(-c2cc(-c3nc(-c4ccc(S(=O)(=O)C(C)C)cc4)cnc3N)on2)cc1
2. Cc1nc(Nc2n[nH]c3c2CN(C(=O)N[C@H](CN(C)C)c2ccccc2)C3(C)C)c2sccc2n1
3. O=C(O)c1ccc(-c2c[nH]c3ncc(-c4ccccc4)cc23)cc1C1CCCC1
4. O=C(Nc1cccnc1)c1cc(-c2ccnc(F)c2)ccc1OCc1ccccc1
5. COc1c(C)c(C(=O)c2ccc(N)c(C(=O)O)c2)n2ccccc12
6. O=C(NC(NC(=S)Nc1ccc(F)c([N+](=O)[O-])c1)C(Cl)(Cl)Cl)C(c1ccccc1)c1ccccc1 (stereo not drawn)
7. O=C(NOCC(O)CO)c1cc(Br)c(F)c(F)c1Nc1ccc(I)cc1F (stereo not drawn)
8. COc1ccc(S(=O)(=O)N(CCO)c2ccccc2CN(C)C/C=C/c2ccc(Cl)cc2)cc1 [KN-93 Phosphate]

stdout:
1: 0.28; 2: 0.82; 3: 0.31; 4: 0.22; 5: 0.3; 6: 1.3; 7: -0.06; 8: -0.27

Hey, quick one: what's thermal shift delta Tm for each of these?
1. O=C1Nc2ccccc2/C1=C1/Nc2ccccc2C1=O [Indirubin]
2. O=S(=O)(c1cccc2c(I)cccc12)N1CCCNCC1
3. C[C@H](NC(=O)/C(C#N)=C/c1cccc(Br)n1)c1ccccc1

stdout:
1: 0.45; 2: -0.05; 3: -0.57

---

- System: LOC_OS04G38480-cb003
- Sequence (as listed by the source): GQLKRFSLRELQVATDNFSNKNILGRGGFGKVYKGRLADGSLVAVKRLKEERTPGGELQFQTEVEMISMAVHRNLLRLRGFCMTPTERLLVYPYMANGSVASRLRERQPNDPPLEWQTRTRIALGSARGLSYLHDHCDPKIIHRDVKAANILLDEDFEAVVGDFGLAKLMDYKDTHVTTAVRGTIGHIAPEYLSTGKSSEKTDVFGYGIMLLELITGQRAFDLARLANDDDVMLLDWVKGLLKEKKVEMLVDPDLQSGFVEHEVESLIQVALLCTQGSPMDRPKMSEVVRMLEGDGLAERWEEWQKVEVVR
- experiment-notes: thermal shift delta Tm vs DMSO control; higher = stronger stabilization (binding)
- condition-parameters: 12.5 µM; protein concentration 2 µM
measured-attribute: thermal shift delta Tm (°C)
Give bare numbers, in °C.

COc1cc2nccc(Oc3ccc(NC(=O)c4cn(C(C)C)c(=O)n(-c5ccc(F)cc5)c4=O)cc3F)c2cc1OC
3.7
CC1(C)OCCn2c1nc1c(N3CCOCC3)nc(-c3cnc(N)nc3)nc12
0.75

// moving on: another record for thermal shift delta Tm
Form field thermal shift delta Tm for item COc1cc2nccc(Oc3ccc(NC(=O)C4(C(=O)Nc5ccc(F)cc5)CC4)cc3)c2cc1OC on LOC_OS04G38480-cb003: 2.61

---

Provide the reported thermal shift delta Tm of each item.
- Test system: LOC_OS04G38480-cb003
- experiment-notes: thermal shift delta Tm vs DMSO control; higher = stronger stabilization (binding)
- condition-parameters: 12.5 µM; protein concentration 2 µM
Give bare numbers, in °C.

Please review the entries below; each comes with its answer.
COc1cc(OC)cc(-c2cc3cnc(N)nc3nc2NC(=O)NC(C)(C)C)c1
0.52
CCn1c(=O)c(-c2cc[nH]n2)cc2c(C)nc(N)nc21
0.82
Cc1cnc(Nc2ccc(N3CCN(C)CC3)cc2)nc1Nc1cccc(S(=O)(=O)NC(C)(C)C)c1
2.7
COC(=O)Nc1ccc(-c2nc(N3CCOCC3)c3cnn(C4CCN(C(=O)OC)CC4)c3n2)cc1
0.81
CO[C@H]1CC[C@H](N2C(=O)CNc3ncc(-c4ccc(C(C)(C)O)nc4)nc32)CC1
1.62

For each entry beneath this line, provide reported thermal shift delta Tm.
1. CCCS(=O)(=O)Nc1ccc(F)c(C(=O)c2c[nH]c3ncc(-c4ccc(Cl)cc4)cc23)c1F
2. COc1cc(F)c(F)c(Nc2ccc(I)cc2F)c1NS(=O)(=O)C1(C[C@H](O)CO)CC1 [Refametinib (RDEA119, Bay 86-9766)]
3. O=C(Cc1ccc(-c2ccc(OCCN3CCOCC3)cc2)cn1)NCc1ccccc1
4. O=c1cc(N2CCOCC2)oc2c(-c3ccc4c(c3)OCCO4)csc12

stdout:
[4.49, 0.79, 0.12, 1.22]

---

- System: LOC_OS04G41100-cb001
- Sequence (as listed by the source): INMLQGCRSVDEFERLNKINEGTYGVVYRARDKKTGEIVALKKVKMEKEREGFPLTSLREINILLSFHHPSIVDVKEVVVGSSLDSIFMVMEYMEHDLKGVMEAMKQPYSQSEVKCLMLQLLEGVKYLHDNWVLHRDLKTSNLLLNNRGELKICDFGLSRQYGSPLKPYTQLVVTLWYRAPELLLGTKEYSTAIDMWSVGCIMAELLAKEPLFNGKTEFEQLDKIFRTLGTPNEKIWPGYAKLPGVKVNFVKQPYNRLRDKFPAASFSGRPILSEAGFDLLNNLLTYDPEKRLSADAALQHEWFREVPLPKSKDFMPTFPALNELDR
- experiment-notes: thermal shift delta Tm vs DMSO control; higher = stronger stabilization (binding)
- condition-parameters: 12.5 µM; protein concentration 2 µM
Could you please report measured thermal shift delta Tm for the items listed next?
Give bare numbers, in °C.

CC1(COc2ccc3c(c2)ncn3-c2ccc3cccc(N4CCC(N)CC4)c3n2)COC1
0.23
CCn1c(-c2nonc2N)nc2cnc(Oc3cccc(NC(=O)c4ccc(OCCN5CCOCC5)cc4)c3)cc21
0.94
N#Cc1ccc2ncnc(NCCc3ccccc3)c2c1 [Senexin A]
0.25

Let us examine a further case.
The compound listed as Cc1nc(-c2cn3c(n2)-c2ccc(-c4cnn(C(C)(C)C(N)=O)c4)cc2OCC3)n(C(C)C)n1 [Taselisib (GDC 0032)] shows thermal shift delta Tm equal to 0.38

---

- Test system: LOC_OS02G17970-cb001
- experiment-notes: thermal shift delta Tm vs DMSO control; higher = stronger stabilization (binding)
- condition-parameters: 12.5 µM; protein concentration 2 µM
Field: thermal shift delta Tm. Provide a value for each of the compounds that follow.

Below, 3 compounds whose answers are already recorded.
COc1cc2ncc(-c3ccccc3)nc2cc1OC [Tyrphostin AG 1296]
0.27 °C
O=c1c(O)c(-c2ccc(O)c(O)c2)oc2cc(O)cc(O)c12 [Quercetin]
1.77 °C
CC(C)Nc1cc(-c2c[nH]c(C(=O)N[C@H](CO)c3cccc(Cl)c3)c2)c(Cl)cn1
1.49 °C

For each entry beneath this line, provide reported thermal shift delta Tm.
1. Nc1ncc(-c2ccnc(Nc3ccncc3)n2)c(CC2CC2)n1
2. COC(=O)Nc1ccc(-c2nc(N3CCOCC3)c3cnn(C4CCN(C(=O)OC)CC4)c3n2)cc1

stdout:
2.16 °C
0.43 °C
